The measurements presented in this section are drawn from the NIST ThermoML archive (doi:10.1021/je301370s).

- assayExplanation: xn = mol fraction of the nth substance listed
- details: 303.2 K; 101 kPa; Liquid; Taylor dispersion method; x1 = 0
Would you mind telling me the reported binary diffusion coefficient of each entry?
Supply the numeric figure in m2/s, leaving out any unit text.

Give its binary diffusion coefficient value. Item: NCCCCCCC(=O)O [7-aminoheptanoic acid] + O 7.86e-10

Give its binary diffusion coefficient value. Item: NCCCC(=O)O [4-aminobutanoic acid] + O 9.54e-10

Give its binary diffusion coefficient value. Item: NCCCCCC(=O)O [6-aminohexanoic acid] + O 8.25e-10

Give its binary diffusion coefficient value. Item: NCCC(=O)O [3-aminopropanoic acid] + O 1.06e-09

Give its binary diffusion coefficient value. Item: NCCCCC(=O)O [5-aminovaleric acid] + O 8.73e-10
